The compounds listed here are annotated with their melting point.

{"COMPOUND": "COc1cc2c(cc1-c1c(C)nn(C)c1C)-c1c(-c3cccs3)c3c(n1CC2)C(=O)N(C(C)C)CCN(C(=O)OC(C)(C)C)C3", "melting point": "232 to 234 °C"}
{"COMPOUND": "CC(O)c1ccc(C2=CCCCC2)cc1 (configuration not stated)", "melting point": "60 to 62 °C"}
{"COMPOUND": "O=c1c(Cl)c(Cl)sn1C1CCCCC1", "melting point": "114 to 116 °C"}

Next item in the queue.
Quick one: give measured melting point for "CC(C)c1cc(C(=O)O)sc1C(C)C"
149 to 151 °C

###

RESULT_TYPE: melting point

Consider the worked cases shown below.
{"MOLECULE": "COC(=O)C1c2c(C)c(OC(=O)c3ccc([N+](=O)[O-])cc3)c(C)c(C)c2OC1(C)C (stereo not given)", "RECORDED_RESULT": "215 to 216 °C"}
{"MOLECULE": "COc1ccc(OCc2ccccc2)cc1CC#N", "RECORDED_RESULT": "63 to 65 °C"}
{"MOLECULE": "O=C(O)C=Cc1cc(=O)c(OCc2ccccc2)c[nH]1", "RECORDED_RESULT": "236 °C"}

Quick one: give measured melting point for "O=C1CCC(Cc2ccccc2)CC1"
40 to 44 °C

Quick one: give measured melting point for CCNc1nc(OC)c(C(=O)NCC2CCCN2CC)nc1Cl (stereo not given)
167 to 169 °C

###

RESULT_TYPE: melting point

Consider the worked cases shown below.
{"COMPOUND": "COC(=O)C1CCC2C(CCC3C(C)(C)CCCC23C)C(=O)C1 (configuration not stated)", "RESULT_TYPE": "melting point", "RECORDED_RESULT": "67 to 68 °C"}
{"COMPOUND": "COc1ccc(-n2nc(Sc3ccc(C(F)(F)F)cc3)c(C)c(C#N)c2=O)cc1", "RESULT_TYPE": "melting point", "RECORDED_RESULT": "151 to 155 °C"}
{"COMPOUND": "CCOc1ccc(C(=O)c2csc(-c3ccc(OCC)c(OCC)c3)n2)cc1OCC", "RESULT_TYPE": "melting point", "RECORDED_RESULT": "128 to 129 °C"}
{"COMPOUND": "COc1ccc(C#N)cc1C=NO", "RESULT_TYPE": "melting point", "RECORDED_RESULT": "142 to 144 °C"}
{"COMPOUND": "O=C1NCCN1Cc1c(Cl)cccc1Cl", "RESULT_TYPE": "melting point", "RECORDED_RESULT": "156 to 158 °C"}

Quick one: give measured melting point for "CN(NC(=O)OC(C)(C)C)C(=O)C(C)(C)ON=C(C(=O)O)c1csc(N)n1"
145 °C

Quick one: give measured melting point for "COc1cc(C)c(C(=O)c2c(Cl)cccc2Cl)c(O)c1O"
182 °C

###

RESULT_TYPE: melting point

{"COMPOUND": "CCOc1cc2ncc(C#N)c(Nc3ccc(F)c(Cl)c3)c2cc1NC(=O)C=CCN(C)C", "RESULT_TYPE": "melting point", "RECORDED_RESULT": "196 to 198 °C"}
{"COMPOUND": "Oc1cc(O)c(-c2nc(-c3ccccc3)nc(-c3ccccc3)n2)cc1Cl", "RESULT_TYPE": "melting point", "RECORDED_RESULT": "255 to 265 °C"}
{"COMPOUND": "CCCn1c(COCC)nc2c(N)nc3cc(OCC(=O)N4CCOCC4)ccc3c21", "RESULT_TYPE": "melting point", "RECORDED_RESULT": "213 °C"}
{"COMPOUND": "CCOC(=O)c1c(-c2ccc(O)cc2)c(C#N)c(=O)n2ccccc12", "RESULT_TYPE": "melting point", "RECORDED_RESULT": "284 to 290 °C"}
{"COMPOUND": "N#Cc1ccccc1CCC(=O)c1c(O)c2cccnc2n(-c2ccccc2)c1=O", "RESULT_TYPE": "melting point", "RECORDED_RESULT": "226 to 227 °C"}
{"COMPOUND": "CC1(O)c2ccc(Cl)cc2CC1(F)S(C)(=O)=O (configuration not stated)", "RESULT_TYPE": "melting point", "RECORDED_RESULT": "148 °C"}

Quick one: give measured melting point for "CN1CCC(C)(c2nc(-c3ccncc3)c(-c3ccc(F)cc3)[nH]2)CC1"
227 to 229 °C

Quick one: give measured melting point for "O=C(O)c1nn(-c2ccc(Cl)cc2)c2c1[C@H]1CC[C@@H]2C1"
110 to 112 °C

Quick one: give measured melting point for CC(=O)Nc1ccc([N+](=O)[O-])cc1OCC(O)CN1C(=O)CCC1=O (configuration not stated)
157 °C
